The origin of these recorded values is ChEMBL document CHEMBL1144796.

- TARGET: Carbonic anhydrase 9 (Homo sapiens)
A collection of molecules and their measured Ki

MOLECULE	UNITS OF MEASURE	Ki
CC1Nc2cc(C(F)(F)F)c(S(N)(=O)=O)cc2S(=O)(=O)N1C (stereo not drawn)	nM	412
CC1Nc2cc(Cl)c(S(N)(=O)=O)cc2S(=O)(=O)N1C (stereo not drawn)	nM	367
NS(=O)(=O)c1cc(C2(O)NC(=O)c3ccccc32)ccc1Cl (stereo not drawn)	nM	23
